Target: T1, mouse vascular endothelial growth factor receptor-2 Fc chimera (Flk-1-Fc) (mouse, UniProt P35918 20-762)
T1 construct: Purchased from R&D Systems; also called mouse VEGF-R2; not shown: Fc part of the purchased chimera
T1 sequence (P35918 20-762, change not shown): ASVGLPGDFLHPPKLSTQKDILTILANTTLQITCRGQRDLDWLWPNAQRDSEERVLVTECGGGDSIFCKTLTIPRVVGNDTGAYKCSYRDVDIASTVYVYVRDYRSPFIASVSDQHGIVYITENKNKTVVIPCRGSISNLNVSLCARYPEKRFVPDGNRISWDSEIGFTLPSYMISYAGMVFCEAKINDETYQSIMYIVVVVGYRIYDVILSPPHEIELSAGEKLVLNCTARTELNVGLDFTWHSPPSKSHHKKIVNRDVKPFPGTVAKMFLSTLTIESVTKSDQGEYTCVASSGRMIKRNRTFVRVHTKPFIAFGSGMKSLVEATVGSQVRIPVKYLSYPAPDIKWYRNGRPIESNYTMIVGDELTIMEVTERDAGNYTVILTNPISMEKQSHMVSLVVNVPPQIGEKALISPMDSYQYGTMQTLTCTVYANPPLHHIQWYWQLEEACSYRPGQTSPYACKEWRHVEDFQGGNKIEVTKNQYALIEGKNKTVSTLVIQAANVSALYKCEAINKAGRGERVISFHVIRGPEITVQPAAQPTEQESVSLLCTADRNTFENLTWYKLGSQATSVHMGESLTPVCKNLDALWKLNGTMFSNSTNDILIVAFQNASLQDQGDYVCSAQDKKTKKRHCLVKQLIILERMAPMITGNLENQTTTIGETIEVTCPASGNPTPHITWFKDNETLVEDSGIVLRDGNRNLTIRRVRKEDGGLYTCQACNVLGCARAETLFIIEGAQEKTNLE
Experiment: binding to 1 nM Flk-1-Fc, % of input; radioactive equilibrium binding (assay not given)
Give measured Binding to 1 nM FLK, % for each item. Keep answers brief.
Numbers only, in %.

Provide the reported Binding to 1 nM FLK, % of each entry below, same order.
1. E16 (designed binder, Del 1-8 10Fn3 clone; Flag tag of the radioactive-assay form not included) EVVAATPTSLLISWRHPHFPTRYYRITYGETGGNSPVQEFTVPLQPPTATISGLKPGVDYTITGYAVTVEENGRQLMTPISINYRT
2. E28 (designed binder, Del 1-8 10Fn3 clone; Flag tag of the radioactive-assay form not included) EVVAATPTSLLISWRHPHFPTRYYRITYGETGGNSPVQEFTVPLQPPTATISGLKPGVDYTITGYAVTLERNGRELMVPISINYRT
3. E20 (designed binder, Del 1-8 10Fn3 clone; Flag tag of the radioactive-assay form not included) EVVAATPTSLLISWRHPHFPTRYYRITYGETGGNSPVQEFTVPLQPPTATISGLKPGVDYTITGYAVTVERNGQVLYTPISINYRT
4. E27 (designed binder, Del 1-8 10Fn3 clone; Flag tag of the radioactive-assay form not included) EVVAATPTSLLISWRHPHFPTRYYRITYGETGGNSPVQEFTVPLQPPTATISGLKPGVDYTITGYAVTVERNGHTLMTPISINYRT

output:
[0, 21, 11, 9]

Provide the reported Binding to 1 nM FLK, % of each entry below, same order.
1. E24 (designed binder, Del 1-8 10Fn3 clone; Flag tag of the radioactive-assay form not included) EVVAATPTSLLISWRHPHFPTRYYRITYGETGGNSPVQEFTVPLQPPTATISGLKPGVDYTITGYAVTVERNDRVLFTPISINYRT
2. E19 (designed binder, Del 1-8 10Fn3 clone; Tags not included) EVVAATPTSLLISWRHPHFPTRYYRITYGETGGNSPVQEFTVPLQPPTATISGLKPGVDYTITGYAVTVERNGRHLMTPISINYRT
3. E3 (designed binder, Del 1-8 10Fn3 clone; Flag tag of the radioactive-assay form not included) EVVAATPTSLLISWRHPHFPTRYYRITYGETGGNSPVQEFTVPLQPPTATISGLKPGVDYTITGYAVTDGRNDRKLMVPISINYRT
4. E8 (designed binder, Del 1-8 10Fn3 clone; Flag tag of the radioactive-assay form not included) EVVAATPTSLLISWRHPHFPTRYYRITYGETGGNSPVQEFTVPLQPPTATISGLKPGVDYTITGYAVTEEWNGRVLMTPISINYRT

output:
1. 29
2. 40
3. 14
4. 10
